Answer each item with its documented Kd.
# ASSAY SYSTEM: T1, human CD22 (d1 to d7 domain according to NP_001762.2) (human, UniProt P20273 20-687)
# T1 construct: domain: d1 to d7 domain; also called human CD22-gly; Siglec-2
# METHOD SUMMARY: SPR; summary table, column 'CD22 KD (nM)'
Numbers only, in nM.

Below, each entry is followed by its recorded Kd result.
TNT85 (antibody, human IgG1, kappa, V domains shown) VH: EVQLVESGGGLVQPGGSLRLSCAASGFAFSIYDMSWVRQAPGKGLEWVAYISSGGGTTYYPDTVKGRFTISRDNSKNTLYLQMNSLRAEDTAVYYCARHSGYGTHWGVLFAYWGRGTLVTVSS VL: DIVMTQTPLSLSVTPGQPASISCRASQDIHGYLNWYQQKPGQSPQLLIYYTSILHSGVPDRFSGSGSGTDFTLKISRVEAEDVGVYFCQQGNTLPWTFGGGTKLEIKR ... 1.3
TNT82 (antibody, human IgG1, kappa, V domains shown) VH: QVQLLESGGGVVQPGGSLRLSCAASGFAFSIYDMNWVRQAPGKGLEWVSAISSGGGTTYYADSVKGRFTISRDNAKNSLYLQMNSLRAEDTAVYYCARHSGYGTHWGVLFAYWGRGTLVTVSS VL: EIVLTQSPATLSLSPGERATLSCRASQDIHGYLNWYQQKPGQAPRLLIYYTSILHSGIPARFSGSGPGTDFTLTISSLEPEDFAVYYCQQGNTLPWTFGGGTKLEIKR ... 0.9
TNT74 (antibody, human IgG1, kappa, V domains shown) VH: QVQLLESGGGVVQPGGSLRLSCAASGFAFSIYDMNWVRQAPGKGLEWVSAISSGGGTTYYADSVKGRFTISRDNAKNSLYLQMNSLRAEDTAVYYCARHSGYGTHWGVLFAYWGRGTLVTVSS VL: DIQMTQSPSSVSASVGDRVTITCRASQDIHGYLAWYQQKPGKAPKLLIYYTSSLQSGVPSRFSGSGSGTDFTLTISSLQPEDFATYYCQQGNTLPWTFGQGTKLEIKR ... 16
TNT87 (antibody, human IgG1, kappa, V domains shown) VH: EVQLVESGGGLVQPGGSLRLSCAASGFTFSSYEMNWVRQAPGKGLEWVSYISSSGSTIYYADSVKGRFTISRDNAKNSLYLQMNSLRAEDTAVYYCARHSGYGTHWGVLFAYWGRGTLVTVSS VL: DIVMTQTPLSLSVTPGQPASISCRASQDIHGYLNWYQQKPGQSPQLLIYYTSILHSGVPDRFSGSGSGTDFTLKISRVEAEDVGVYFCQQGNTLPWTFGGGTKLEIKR ... 0.7

What does the record list as Kd for TNT79 (antibody, human IgG1, kappa, V domains shown) VH: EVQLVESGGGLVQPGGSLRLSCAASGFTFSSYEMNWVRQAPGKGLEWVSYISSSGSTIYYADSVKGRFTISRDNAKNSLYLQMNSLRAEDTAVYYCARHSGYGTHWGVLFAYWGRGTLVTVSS VL: DIQMTQSPSSLSASVGDRVTITCRASQSISSYLNWYQQKPGKAPKLLIYAASSLQSGVPSRFSGSGSGTDFTLTISSLQPEDFATYYCQQGNTLPWTFGQGTKLEIKR ?
23
